Where these numbers come from: PubChem BioAssay (NCI)

Tested on: NCI-H460 lung
experimental-details: NCI tumour cell line growth inhibition, 48 h
compounds and their reported TGI

compound=Cc1cc(C)nc(NS(=O)(=O)c2ccc(Nc3c4ccccc4nc4c(C(=O)NNCCO)cccc34)cc2)n1 result_value="> 100 µM"
compound="O=C1CC(CC(O)[C@@H]2CCCC[C@@H]2O)CC(=O)N1c1ccccc1 (stereo partly drawn)" result_value="> 100 µM"

Alright, here's another compound for you.
Exercise: Value lookup for TGI; key = CCOC(=O)C1=CN/C(=C(/C)C(=O)OC)SC1C(=O)OCC (stereo not drawn)
Solution: > 100 µM

* * *

Each item that follows carries a reported TGI.
Tested on: MALME-3M melanoma
experimental-details: NCI tumour cell line growth inhibition, 48 h
Kindly provide the numeric value in µM only, without the unit symbol.

compound="CCOC(=O)C(SCCO)C(C(=O)OCC)n1cnc2c(N)ncnc21 (stereo unspecified)" assayed_system="MALME-3M melanoma" measurement_unit=µM result_value=23.8
compound=COc1ccc(/C=N\NC(=O)CN2CCN(c3cc4c(cc3F)c(=O)c(C(=O)N/N=C/c3ccc(OC)c(OC)c3)cn4C3CC3)CC2)cc1OC assayed_system="MALME-3M melanoma" measurement_unit=µM result_value=3.62

Now consider a different compound.
Exercise: I would be grateful if you could share the reported TGI for CSc1ccc(C2=NN(C(=O)c3ccc(F)cc3)C(c3ccc(F)cc3)C2)cc1 (stereo unspecified) .
Solution: 26
